- Test system: NCI-H460
- runDescription: Cytotoxicity against human NCI-H460 cells after 48 hrs
- Assay type: functional, cell-based
- runConditions: NCI-H460, 48 h
measuredMetric: pIC50
pIC50 is a log-scale quantity: -log10 of the concentration expressed in molar.

[
  {
    "chemicalStructure": "CCOc1cc(O)cc(-c2cc(=O)c3cc(N4CCCC4)ccc3[nH]2)c1",
    "assayTarget": "NCI-H460",
    "pIC50": 6.23
  },
  {
    "chemicalStructure": "O=c1cc(-c2cc(O)cc(O)c2)[nH]c2ccc(N3CCCC3)cc12",
    "assayTarget": "NCI-H460",
    "pIC50": 4.86
  }
]

Please report the measured pIC50 for Oc1cccc(-c2cc(O)c3cc4c(cc3n2)OCO4)c1
4.77

Tell me pIC50 reported for COc1cccc(-c2cc(O)c3cc4c(cc3n2)OCO4)c1
6.70

Respond only with pIC50 recorded for COc1cc(O)cc(-c2cc(=O)c3cc(N4CCCC4)ccc3[nH]2)c1
5.67

Let me know recorded pIC50 for O=c1cc(-c2ccccc2O)[nH]c2cc3c(cc12)OCO3 , thanks.
4.72

###

# maps each entry to its IC50
- System: NCI-H460
- runDescription: Cytotoxicity against human NCI-H460 cells after 48 hrs
- Type: functional, cell-based
- runConditions: NCI-H460, 48 h

[
  {
    "chemicalStructure": "COc1cc(O)cc(-c2cc(=O)c3cc4c(cc3[nH]2)OCO4)c1",
    "assayTarget": "NCI-H460",
    "val": "> 50 µM"
  },
  {
    "chemicalStructure": "COc1cc(O)cc(-c2cc(=O)c3cc(N(C)C)ccc3[nH]2)c1",
    "assayTarget": "NCI-H460",
    "val": "> 50 µM"
  },
  {
    "chemicalStructure": "CCOc1cc(O)cc(-c2cc(=O)c3cc4c(cc3[nH]2)OCO4)c1",
    "assayTarget": "NCI-H460",
    "val": "> 25 µM"
  }
]

Determine from records and report IC50 for O=c1cc(-c2cc(O)cc(O)c2)[nH]c2cc3c(cc12)OCO3
> 25 µM

Provide only the value of recorded IC50 for O=c1cc(-c2ccc(O)cc2)[nH]c2cc3c(cc12)OCO3
> 100 µM

Supply measured IC50 of COc1cc(O)cc(-c2cc(=O)c3cc(N4CCOCC4)ccc3[nH]2)c1 in your reply.
> 100 µM
